Catalogue of AC50 readings, one per entry.
Test system: thyroid hormone receptor (endogenous TRα and TRβ)
Set-up: species or system GH3-TRE-Luc (rat pituitary); GH3-TRE-Luc luciferase reporter, antagonist mode against 1 nM T3, loss of signal, qHTS
CONDITION_CONTEXT: read-out: Average AC50 (uM) GH3-TRE-Antag, antagonist mode, 1 nM T3, no GH3 cytotoxicity hit
MEASUREMENT_NAME: AC50 (µM)

INSERT INTO results (molecule, scale_unit, value_prefix, obs_value) VALUES
  ('C#C[C@]1(O)CC[C@H]2[C@@H]3CCC4=CC(=O)CCC4=C3C=C[C@@]21CC', 'µM', '=', 24.3),
  ('CC1(C)C2=CCCC(C)(C)[C@]23CC[C@H]1C3 [(-)-Isolongifolene]', 'µM', '=', 54.9),
  ('CCCCCCCC/C=C/CCCCCCCC(=O)OCCO [Polyoxyethylene monoleate]', 'µM', '=', 81.3),
  ('O=C1CCCCCCCCCCCC(=O)OCCO1', 'µM', '=', 47.7),
  ('CCOC(=O)OC1=C(c2cc(C)ccc2C)C(=O)N[C@]12CC[C@@H](OC)CC2', 'µM', '=', 69.7),
  ('CCOC(=O)Oc1c(OC)cc(C(=O)O[C@@H]2C[C@@H]3CN4CCc5c([nH]c6cc(OC)ccc56)[C@H]4C[C@@H]3[C@H](C(=O)OC)[C@H]2OC)cc1OC', 'µM', '=', 19),
  ('CCCCc1c(C)nc(NCC)nc1OS(=O)(=O)N(C)C [Bupirimate]', 'µM', '>', 90),
  ('Brc1ccc(Oc2ccccc2)cc1', 'µM', '=', 44.7),
  ('O=C(COc1ccc(Cl)cc1)OCCNC12CC3CC(CC(C3)C1)C2 [Adafenoxate]', 'µM', '=', 26);

###

Tested on: thyroid hormone receptor (endogenous TRα and TRβ)
Parameters: species or system GH3-TRE-Luc (rat pituitary); GH3-TRE-Luc luciferase reporter, antagonist mode against 1 nM T3, loss of signal, qHTS
CONDITION_CONTEXT: read-out: Average AC50 (uM) GH3-TRE-Antag, antagonist mode, 1 nM T3, no GH3 cytotoxicity hit
Below, each entry is listed alongside its reported AC50.
MEASUREMENT_NAME: AC50

INSERT INTO results (compound, obs_value) VALUES
  ('C=C1C[C@H]2[C@@H]3C=C(C)C4=CC(=O)CC[C@]4(C)[C@H]3CC[C@]2(C)[C@@]1(OC(C)=O)C(C)=O [Melengestrol acetate]', '26.6 µM'),
  ('O=C1c2ccccc2C(=O)N1CCc1noc(-c2ccc(CN3CCCCCC3)s2)n1', '75.2 µM'),
  ('c1csc(SSc2cccs2)c1 [2-Thienyl disulfide]', '57.5 µM'),
  ('Oc1ccc(-c2ccc(O)cc2)cc1', '34.2 µM');

###

The following molecules are shown together with reported AC50 values.
Test system: thyroid hormone receptor (endogenous TRα and TRβ)
Set-up: species or system GH3-TRE-Luc (rat pituitary); GH3-TRE-Luc luciferase reporter, antagonist mode against 1 nM T3, loss of signal, qHTS
CONDITION_CONTEXT: read-out: Average AC50 (uM) GH3-TRE-Antag, antagonist mode, 1 nM T3, no GH3 cytotoxicity hit
Counter-ions that a name gives are not always drawn.
MEASUREMENT_NAME: AC50 (µM)

INSERT INTO measurements (molecule, measurement_name, scale_unit, value_prefix, obs_value) VALUES
  ('CCCCCCCCCCCC(=O)OCC(O)CO (stereo not shown)', 'AC50', 'µM', '=', 47.2),
  ('CN(C)c1ccc(O)c2c1C[C@H]1C[C@H]3[C@H](N(C)C)C(O)=C(C(N)=O)C(=O)[C@@]3(O)C(O)=C1C2=O [Minocycline hydrochloride]', 'AC50', 'µM', '=', 44.9),
  ('CC1=C(C)S(=O)(=O)CCS1(=O)=O', 'AC50', 'µM', '=', 86.8),
  ('CCCC(=O)O[C@]1(C(=O)CCl)[C@@H](C)C[C@H]2[C@@H]3CCC4=CC(=O)C=C[C@]4(C)[C@@]3(F)C(=O)C[C@@]21C [Clobetasone butyrate]', 'AC50', 'µM', '=', 32.9),
  ('Brc1cc(-c2ccc(Br)c(Br)c2Br)cc(Br)c1Br', 'AC50', 'µM', '=', 51.8),
  ('CC(=O)Nc1ccn(C2COC(COC(=O)c3ccccc3)O2)c(=O)n1 (stereo not shown)', 'AC50', 'µM', '=', 11.4),
  ('Cc1cc(OI)c(C(C)C)cc1-c1cc(C(C)C)c(OI)cc1C [Thymol iodide]', 'AC50', 'µM', '=', 37.3),
  ('CC[C@H]1OC(=O)[C@H](C)C(=O)[C@H](C)[C@@H](O[C@@H]2O[C@H](C)C[C@H](N(C)C)[C@H]2O)[C@](C)(OC)C[C@@H](C)C(=O)[C@H](C)[C@H]2N(CCCCn3cnc(-c4cccnc4)c3)C(=O)O[C@]12C', 'AC50', 'µM', '=', 22.2),
  ('NC(N)=NCc1cccc(I)c1 [3-Iodobenzylguanidine hemisulfate]', 'AC50', 'µM', '=', 16.3),
  ('CC[C@H](C)C(=O)O[C@H]1CCC=C2C=C[C@H](C)[C@H](CC[C@@H]3C[C@@H](O)CC(=O)O3)[C@H]21', 'AC50', 'µM', '=', 30.9),
  ('CCCCCCCCCCC(=O)O', 'AC50', 'µM', '=', 60.2),
  ('Cc1cc(C(C)(C)c2ccc(O)c(C)c2)ccc1O', 'AC50', 'µM', '=', 33.1),
  ('CCCCCCCCCCCCCCCC(=O)OC[C@H](O)[C@H]1OC(=O)C(O)=C1O [Ascorbyl palmitate]', 'AC50', 'µM', '>', 50),
  ('COc1ccc(C(=O)c2ccc(O)cc2)c(OC)c1', 'AC50', 'µM', '=', 54.9),
  ('NC(=O)N(O)[C@@H]1C=C[C@H](Oc2cccc(Oc3ccc(F)cc3)c2)C1', 'AC50', 'µM', '=', 81.3),
  ('Cc1c(OCC(F)(F)F)ccnc1C[S+]([O-])c1nc2ccccc2[nH]1 (stereo not shown)', 'AC50', 'µM', '>', 50);

###

System: thyroid hormone receptor (endogenous TRα and TRβ)
Parameters: species or system GH3-TRE-Luc (rat pituitary); GH3-TRE-Luc luciferase reporter, antagonist mode against 1 nM T3, loss of signal, qHTS
CONDITION_CONTEXT: read-out: Average AC50 (uM) GH3-TRE-Antag, antagonist mode, 1 nM T3, no GH3 cytotoxicity hit
Where a name gives a salt, the structure may show the parent alone.
Reported AC50 maps to class as: Low: < 20 µM; Medium: ≥ 20 µM and < 50 µM; High: ≥ 50 µM

INSERT INTO results (molecule, class_assignment) VALUES
  ('CN1[C@@H](CC(=O)c2ccccc2)CCC[C@H]1C[C@H](O)c1ccccc1', 'Medium'),
  ('COc1nc(N)nc2c1ncn2[C@@H]1O[C@H](CO)[C@@H](O)[C@@H]1O', 'Medium'),
  ('COc1ccc(Cc2nccc3cc(OC)c(OC)cc23)cc1OC [Papaverine hydrochloride]', 'Low'),
  ('C#CCC(Cc1cnc2nc(N)nc(N)c2n1)c1ccc(C(=O)N[C@@H](CCC(=O)O)C(=O)O)cc1 (some centres unmarked) [Pralatrexate]', 'Low'),
  ('NC(=O)N(O)[C@@H]1COc2cc(OCc3ccccc3)ccc21', 'High'),
  ('OCC#CCO', 'High'),
  ('O=C(N[C@@H]1N=C(c2ccccc2F)c2cccc3c2N(CC3)C1=O)c1cc2ccccc2[nH]1', 'Low'),
  ('C[C@@H]1C[C@H]2[C@@H]3C[C@H](F)C4=CC(=O)C(Cl)=C[C@]4(C)[C@@]3(F)[C@@H](O)C[C@]2(C)[C@@]1(O)C(=O)CO [Halometasone hydrate]', 'Medium'),
  ('C[C@H](CN1CCCC1)C(=O)c1ccc(C(F)(F)F)cc1 [Lanperisone hydrochloride]', 'Medium'),
  ('CC(C)(C)c1ccc(CCC=O)cc1', 'High'),
  ('CCCCCOC(=O)COc1cc(N2C(=O)C3=C(CCCC3)C2=O)c(F)cc1Cl', 'High'),
  ('CCCN(CCC)S(=O)(=O)c1ccc(C(=O)O)cc1', 'Low'),
  ('CC[C@@]1(O)C(=O)OCc2c1cc1n(c2=O)Cc2cc3c(CN(C)C)c(O)ccc3nc2-1 [Topotecan hydrochloride]', 'Low');

###

Test system: thyroid hormone receptor (endogenous TRα and TRβ)
Parameters: species or system GH3-TRE-Luc (rat pituitary); GH3-TRE-Luc luciferase reporter, antagonist mode against 1 nM T3, loss of signal, qHTS
CONDITION_CONTEXT: read-out: Average AC50 (uM) GH3-TRE-Antag, antagonist mode, 1 nM T3, no GH3 cytotoxicity hit
Where a name gives a salt, the structure may show the parent alone.
MEASUREMENT_NAME: log10(AC50) (log10 of the value in µM)

INSERT INTO measurements (compound, obs_value) VALUES
  ('CCCCC[C@H](O)/C=C/[C@H]1[C@H](O)CC(=O)[C@@H]1C/C=C\CCCC(=O)O', 0.67),
  ('COC1=CC(=O)O[C@@H](/C=C/c2ccc3c(c2)OCO3)C1', -1.32),
  ('C#C[C@]1(O)C=C[C@H]2[C@@H]3CCC4=CC(=O)CC[C@@H]4[C@H]3CC[C@@]21CC', 1.19),
  ('OCCN1CCNCC1', 1.87),
  ('CCN(CCCc1ccccc1)CCCc1ccccc1 [Alverine citrate]', 1.03),
  ('NNc1nnc(Cc2ccncc2)c2ccccc12', 0.52),
  ('CCCc1nc2c(C)cc(-c3nc4ccccc4n3C)cc2n1Cc1ccc(-c2ccccc2C(=O)O)cc1', 1.50),
  ('CCCCCCCCCCCCCCC[C@H](O)[C@@H](N)CO', 1.43),
  ('c1ccc(C2(c3ccccc3)CC2C2=NCCN2)cc1 (stereo not shown) [Cifenline succinate]', 1.55),
  ('CN[C@H]1C[C@@H](N)[C@H](O)[C@@H](O[C@@H]2O[C@H](CO)[C@H](O)[C@@H]3OC4(O[C@H]23)O[C@H]([C@@H](N)CO)[C@H](O)[C@H](O)[C@H]4O)[C@@H]1O (stereo partly shown)', 1.11),
  ('O=C(O)c1cc(Cl)cc(Cl)c1O', 1.84),
  ('c1ccc2c(c1)CCc1ccccc1N2 [10,11-Dihydro-5H-dibenz[b,f]azepine]', 1.61),
  ('CCc1ccc(C(=O)C(C)CN2CCCCC2)cc1 (stereo not shown) [Eperisone hydrochloride]', 1.58),
  ('COC(=O)[C@H]1[C@H]2C[C@@H]3c4[nH]c5cc(OC)ccc5c4CCN3C[C@H]2C[C@@H](OC(=O)COc2ccc(OC)cc2)[C@@H]1OC', 1.33),
  ('CC(C)c1ccc2oc3nc(N)c(C(=O)O)cc3c(=O)c2c1', 1.51),
  ('CCN(Cc1c(F)cccc1Cl)c1c([N+](=O)[O-])cc(C(F)(F)F)cc1[N+](=O)[O-]', 1.60),
  ('CCOCN(C(=O)CCl)c1c(C)cccc1CC', 1.88),
  ('Cc1nc2ccccc2n1Cc1ccc(Cl)cc1', 0.77),
  ('Cc1cc(CC(=O)O)c(C)n1-c1ccc(Cl)cc1', 1.59),
  ('CCCN(CCC)C(=O)Cc1c(-c2ccc(Cl)cc2)nc2ccc(Cl)cn12', 1.40),
  ('Oc1ccc2ccc3cccc4ccc1c2c34 [1-Hydroxypyrene]', 1.75),
  ('O=c1c(-c2ccc(O)cc2)coc2cc(O)ccc12', 1.94),
  ('CCN(CC)CCOCCOC(=O)C1(c2ccccc2)CCCC1', 1.04),
  ('CCCCOCCOC(=O)c1ccccc1C(=O)OCCOCCCC [Bis(2-butoxyethyl) phthalate]', 1.83),
  ('CCCCCC[C@@H](O)C/C=C\CCCCCCCC(=O)O [Potassium ricinoleate]', 1.50),
  ('CNC(=O)Nc1ccc(Cl)c(Cl)c1', 1.68),
  ('O=S(=O)(c1cccc2cnccc12)N1CCCNCC1 [Fasudil hydrochloride]', 1.48),
  ('OC(CCCN1CCCCC1)(c1ccccc1)c1ccccc1', 1.28),
  ('CC(C)CCOC(=O)/C=C/c1ccccc1 [3-Methylbutyl cinnamate]', 1.91);
